Target: human recombinant 6His-Nterm SHP2 full-length (Thr2-Arg593) (Homo sapiens, UniProt Q06124)
Construct: 6His-Nterm SHP2 full-length (Thr2-Arg593, R&D system); 6His (N)
Sequence (Q06124 2-593): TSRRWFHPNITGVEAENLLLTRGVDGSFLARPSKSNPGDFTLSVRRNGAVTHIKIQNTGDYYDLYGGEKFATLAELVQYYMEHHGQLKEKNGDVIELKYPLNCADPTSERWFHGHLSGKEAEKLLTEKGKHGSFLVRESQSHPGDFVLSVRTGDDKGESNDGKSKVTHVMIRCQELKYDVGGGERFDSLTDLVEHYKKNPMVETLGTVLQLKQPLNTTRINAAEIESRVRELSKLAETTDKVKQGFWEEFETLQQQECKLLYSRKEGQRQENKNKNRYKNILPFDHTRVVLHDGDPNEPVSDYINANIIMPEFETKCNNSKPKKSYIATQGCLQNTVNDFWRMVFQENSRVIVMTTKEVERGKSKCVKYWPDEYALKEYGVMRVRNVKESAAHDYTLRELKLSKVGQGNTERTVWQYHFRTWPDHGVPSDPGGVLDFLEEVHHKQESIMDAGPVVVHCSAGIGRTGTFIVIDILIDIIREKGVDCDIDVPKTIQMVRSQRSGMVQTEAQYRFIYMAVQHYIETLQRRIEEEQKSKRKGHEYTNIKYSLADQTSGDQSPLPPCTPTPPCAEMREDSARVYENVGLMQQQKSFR
Assay: SHP2 Phosphatase Assay (DiFMUP fluorescence)
Conditions: SHP2 0.2 nM pre-incubated with 100 nM bi-phosphorylated activating peptide; compound 1000-0.05 nM, 30 min pre-incubation; DiFMUP 20 µM, 45 min, room temperature; 10-concentration dose-response
Structures can show the parent of a compound that is named as a salt.
Assay endpoint: log10 IC50 (log10 of the value in µM)
Log10 applied to IC50; unit prior to transform: µM.

Example cases with answers are listed next.
> print(dat)
                                   compound  assay.endpoint  value.observed
1  Cc1nc(N2CCC3(CC2)Cc2ncc(C(F)F)cc2[C@H]3N)c2ccnn2c1-c1cnn(C)c1C [Compound 55]      log10 IC50           -1.52
2  COc1ccc2c(c1)[C@@H](N)C1(CCN(c3nc(C)c(-c4cc(C)nn4C)n4nccc34)CC1)C2 [Compound 123, hydrochloride]      log10 IC50           -2.05
3  Cc1nc(N2CCC3(CC2)Cc2ncccc2[C@H]3N)c2ccnn2c1-c1cscn1 [Compound 160, hydrochloride]      log10 IC50           -1.20
4  Cc1nc(N2CCC3(CC2)Cc2ccncc2[C@H]3N)c2ccnn2c1-c1ccccc1F [Compound 134]      log10 IC50           -2.40
5  Cc1nc(N2CCC3(CC2)Cc2ncccc2[C@H]3N)c2ccnn2c1-c1ccncc1 [Compound 70, hydrochloride]      log10 IC50           -1.14
6  Cc1nccc(-c2c(C)nc(N3CCC4(CC3)Cc3cccnc3[C@H]4N)c3ccnn23)c1Cl [Compound 13]      log10 IC50           -2.15

Lab note: next compound to report on.
## Task Form field: reported log10 IC50 of Cc1nc(N2CCC3(CC2)Cc2scnc2[C@H]3N)c2ccnn2c1-c1ccccc1 [Compound 68, hydrochloride]
## Result -1.74

---

Molecular target: human recombinant 6His-Nterm SHP2 full-length (Thr2-Arg593) (Homo sapiens, UniProt Q06124)
Construct: 6His-Nterm SHP2 full-length (Thr2-Arg593, R&D system); 6His (N)
Assay: SHP2 Phosphatase Assay (DiFMUP fluorescence)
Conditions: SHP2 0.2 nM pre-incubated with 100 nM bi-phosphorylated activating peptide; compound 1000-0.05 nM, 30 min pre-incubation; DiFMUP 20 µM, 45 min, room temperature; 10-concentration dose-response
Assay endpoint: IC50 (nM)
Answer format: numeric, nM implied, no suffix.

Past entries and their recorded results:
> print(dat)
                         compound.structure  assay.endpoint  unit.info  value.observed
1  Cc1nc(N2CCC3(CC2)Cc2ncccc2[C@H]3N)c2ccnn2c1-c1ccc(CC#N)cc1            IC50         nM               4
2  Cc1nc(N2CCC3(CC2)Cc2ncccc2[C@H]3N)c2ccnn2c1-c1ccsc1            IC50         nM               5
3  Cc1nc(N2CCC3(CC2)Cc2ncccc2[C@H]3N)c2ccnn2c1-c1cccc(F)c1F            IC50         nM               6

## Task # lookup: IC50 of `Cc1nc(N2CCC3(CC2)Oc2ccccc2[C@H]3N)c2ccnn2c1-c1cccc(Cl)c1Cl`
## Result 102

---

Biological target: human recombinant 6His-Nterm SHP2 full-length (Thr2-Arg593) (Homo sapiens, UniProt Q06124)
Construct: 6His-Nterm SHP2 full-length (Thr2-Arg593, R&D system); 6His (N)
Test: SHP2 Phosphatase Assay (DiFMUP fluorescence)
Details: SHP2 0.2 nM pre-incubated with 100 nM bi-phosphorylated activating peptide; compound 1000-0.05 nM, 30 min pre-incubation; DiFMUP 20 µM, 45 min, room temperature; 10-concentration dose-response
pIC50: −log10 of the molar value. Counter-ions that a name gives are not always drawn.
Please note: T applies when pIC50 is 8 or greater, and F applies otherwise.

Use the examples below as a reference point.
> print(dat)
                                   compound  category
1  Cc1nccc(-c2c(C)nc(N3CCC4(CC3)Nc3ccccc3[C@H]4N)c3ccnn23)c1Cl [Compound 154, hydrochloride]         T
2  Cc1nc(N2CCC3(CC2)Cc2ncccc2[C@H]3N)c2ccnn2c1-c1cscc1C#N [Compound 46]         F

## Task Evaluate Cc1nc(N2CCC3(CC2)Cc2ncccc2[C@H]3N)c2ccnn2c1-c1cccc2c1ccn2C [Compound 182] : pIC50 at minimum 8?
## Result F

## Task Quick check: does Cc1nc(N2CCC3(CC2)Cc2ncccc2[C@H]3N)c2ccnn2c1-c1cncc(F)c1 [Compound 179] have pIC50 greater than or equal to 8?
## Result F

---

Biological target: human recombinant 6His-Nterm SHP2 full-length (Thr2-Arg593) (Homo sapiens, UniProt Q06124)
Construct: 6His-Nterm SHP2 full-length (Thr2-Arg593, R&D system); 6His (N)
Experiment: SHP2 Phosphatase Assay (DiFMUP fluorescence)
Conditions: SHP2 0.2 nM pre-incubated with 100 nM bi-phosphorylated activating peptide; compound 1000-0.05 nM, 30 min pre-incubation; DiFMUP 20 µM, 45 min, room temperature; 10-concentration dose-response
Counter-ions that a name gives are not always drawn.
Measured IC50, listed per entry for reference.

Study these solved cases before continuing.
> print(dat)
                                   compound  value.observed
1  Cc1nc(N2CCC3(CC2)Cc2ncccc2[C@H]3N)c2c(C(F)F)cnn2c1-c1ccccc1F       > 1000 nM
2  Cc1nc(N2CCC3(CC2)Cc2ccncc2[C@H]3N)c2ccnn2c1-c1ccccc1            4 nM
3  COc1ccc2c(n1)[C@@H](N)C1(CCN(c3nc(C)c(-c4cccc(F)c4Cl)n4nccc34)CC1)C2           23 nM
4  COc1nccc(-c2c(C)nc(N3CCC4(CC3)Cc3ncccc3[C@H]4N)c3ccnn23)c1Cl            6 nM

## Task Given the entry `Cc1nc(N2CCC3(CC2)Cc2nc(CO)ccc2[C@H]3N)c2ccnn2c1-c1ccccc1` , report its measured IC50.
## Result 13 nM

## Task Can you look up the measured IC50 of `Cc1nc(N2CCC3(CC2)Cc2ncccc2[C@H]3N)c2ccnn2c1-c1ccc2scnc2c1` for me?
## Result 11 nM

## Task So what's the measured IC50 for this one? Cc1nccc(-c2c(C)nc(N3CCC4(CC3)Cc3cc(F)ccc3[C@H]4N)c3ccnn23)c1Cl [Compound 217, formate]
## Result 8 nM

## Task Record request: IC50 value, item `Cc1nc(N2CCC3(CC2)Cc2ncccc2[C@H]3N)c2ccnn2c1-c1ccc(C#N)s1`
## Result 31 nM

---

Catalogue of IC50 values
Molecular target: human recombinant 6His-Nterm SHP2 full-length (Thr2-Arg593) (Homo sapiens, UniProt Q06124)
Construct: 6His-Nterm SHP2 full-length (Thr2-Arg593, R&D system); 6His (N)
Sequence (Q06124 2-593): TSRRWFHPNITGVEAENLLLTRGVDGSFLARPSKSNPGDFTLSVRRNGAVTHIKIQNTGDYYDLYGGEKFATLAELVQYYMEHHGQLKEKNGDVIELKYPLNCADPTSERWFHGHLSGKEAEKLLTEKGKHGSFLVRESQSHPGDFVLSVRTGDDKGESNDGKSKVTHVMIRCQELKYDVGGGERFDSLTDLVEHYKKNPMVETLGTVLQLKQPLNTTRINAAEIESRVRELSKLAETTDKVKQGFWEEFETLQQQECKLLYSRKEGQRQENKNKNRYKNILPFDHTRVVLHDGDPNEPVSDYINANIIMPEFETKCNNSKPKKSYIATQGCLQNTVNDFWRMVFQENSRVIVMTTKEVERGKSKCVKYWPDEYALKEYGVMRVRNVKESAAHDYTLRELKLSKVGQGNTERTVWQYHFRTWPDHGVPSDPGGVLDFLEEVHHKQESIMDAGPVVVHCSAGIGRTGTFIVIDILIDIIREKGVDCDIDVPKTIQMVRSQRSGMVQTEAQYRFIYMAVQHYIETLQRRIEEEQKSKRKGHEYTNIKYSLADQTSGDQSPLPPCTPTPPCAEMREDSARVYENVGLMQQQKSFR
Assay: SHP2 Phosphatase Assay (DiFMUP fluorescence)
Details: SHP2 0.2 nM pre-incubated with 100 nM bi-phosphorylated activating peptide; compound 1000-0.05 nM, 30 min pre-incubation; DiFMUP 20 µM, 45 min, room temperature; 10-concentration dose-response
Structures can show the parent of a compound that is named as a salt.
Give just the numeric value; nM need not be written.

## Task Query (compound): Cc1nc(N2CCC3(CC2)Nc2ccccc2[C@H]3N)c2ccnn2c1-c1ccccc1F [Compound 153, hydrochloride] ; field requested: IC50
## Result 15

## Task For the compound `Cc1nc2c(o1)[C@@H](N)C1(CCN(c3nc(C)c(-c4ccccc4F)n4nccc34)CC1)C2` , what IC50 is on record?
## Result 27

## Task Give the measured IC50 of `Cc1ncc(-c2c(C)nc(N3CCC4(CC3)Cc3ncccc3[C@H]4N)c3ccnn23)s1` .
## Result 9

## Task Could you share which IC50 value was measured for COc1ccc2c(c1)[C@@H](N)C1(CCN(c3nc(C)c(-c4ccccc4F)n4nccc34)CC1)C2 [Compound 11, hydrochloride] ?
## Result 23
